# assayTarget: UniProtKB Q72874
# assayOverview: Compound was evaluated for its inhibitory activity in recombinant HIV-l protease
measurementLabel: IC50 (µM)
Numbers only; they are read as µM.

Q: Report measured IC50; entry is "CC[C@H](C)[C@H](NC(=O)[C@H](Cc1ccccc1)CC(O)C[C@@H](Cc1ccccc1)C(=O)N[C@H](C(=O)NCCN1CCOCC1)[C@@H](C)CC)C(=O)NCCN1CCOCC1"
Result: 0.85

Q: Hello, please tell me recorded IC50 for this one: "CC[C@H](C)[C@H](NC(=O)[C@H](Cc1ccccc1)CC(O)C[C@@H](Cc1ccccc1)C(=O)N[C@H](C(=O)NCc1ccccn1)[C@@H](C)CC)C(=O)NCc1ccccn1"
Result: 0.45

Q: Supply IC50 value. Item: CC[C@H](C)[C@H](NC(=O)[C@H](Cc1ccccc1)CC(O)C[C@@H](Cc1ccccc1)C(=O)N[C@H](C(=O)NCC1CCc2ccccc2N1)[C@@H](C)CC)C(=O)NCC1CCc2ccccc2N1 (stereo partly drawn)
Result: 1.2

Values were extracted from ChEMBL document CHEMBL1149924.
